# PROTOCOL DETAILS: Saturation solubility in selected solvents/vehicles
# Format: physicochemical
# SETTINGS: aqueous with cosolvent or surfactant or cyclodextrin, thermodynamic from solid, in demin. water; n = 1; HU308 crystalline material; read-out: Solubility in HP-beta-CD 15%
MEASUREMENT TYPE: solubility (µg/mL)
All answers are understood in µg/mL, so give the number only.

Task: Query: solubility; subject: CCCCCCC(C)(C)c1cc(OC)c([C@H]2C=C(CO)[C@H]3C[C@@H]2C3(C)C)c(OC)c1 [HU308, reference compound]
Output: 20

Task: Query: solubility; subject: CCCCCCC(C)(C)c1cc(OC)c(C2=C[C@H]3CC[C@]2(CO)C3(C)C)c(OC)c1 [HU910, reference compound]
Output: 320

Task: Query: solubility; subject: CC(C)(C)c1nc(N2CC[C@H](O)C2)c2nnn(Cc3nnnn3C3CC3)c2n1
Output: 7200

Task: Query: solubility; subject: CNC(=O)[C@@H](NC(=O)c1cc(OCC2(C)COC2)c(C2CC2)cn1)C(C)(C)C
Output: 35500

###

# SYSTEM: CYP2D6 (Homo sapiens, UniProt P10635)
# Sequence (P10635 whole entry): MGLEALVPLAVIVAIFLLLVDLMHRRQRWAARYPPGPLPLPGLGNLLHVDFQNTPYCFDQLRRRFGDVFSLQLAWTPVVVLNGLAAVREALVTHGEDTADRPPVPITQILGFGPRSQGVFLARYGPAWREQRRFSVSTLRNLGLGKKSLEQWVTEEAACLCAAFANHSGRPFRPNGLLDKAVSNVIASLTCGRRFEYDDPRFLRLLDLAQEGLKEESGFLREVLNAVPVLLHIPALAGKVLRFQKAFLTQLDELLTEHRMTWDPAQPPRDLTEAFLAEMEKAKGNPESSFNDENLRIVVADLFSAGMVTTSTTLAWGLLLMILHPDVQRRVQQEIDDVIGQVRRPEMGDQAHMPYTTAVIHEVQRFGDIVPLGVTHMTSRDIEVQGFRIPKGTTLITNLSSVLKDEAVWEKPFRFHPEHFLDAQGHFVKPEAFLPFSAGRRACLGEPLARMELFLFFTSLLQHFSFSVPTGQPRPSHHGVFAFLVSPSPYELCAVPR
# PROTOCOL DETAILS: Cytochrome P450 inhibition assay, CYP2D6
# Format: in vitro ADME
# SETTINGS: read-out: IC50 CYP2D6
pIC50: −log10 of the molar value.
MEASUREMENT TYPE: pIC50

Here are 3 compounds together with their reported answers.
compound="Cc1nc([C@](C)(CC2CC2)NC(=O)c2cc(OCC(F)(F)F)c(C3CC3)cn2)no1 [RO6871085]" reported_result=4.47
compound="CC(C)(C)c1nc(N2CC[C@H](O)C2)c2nnn(Cc3nnnn3C3CC3)c2n1 [RO6871304]" reported_result="< 4.30"
compound="CNC(=O)[C@@H](NC(=O)c1cc(OCC2(C)COC2)c(C2CC2)cn1)C(C)(C)C [RO6851228]" reported_result="< 4.30"

Now consider a different compound.
Task: Query: pIC50; subject: CCCCCCC(C)(C)c1cc(OC)c(C2=C[C@H]3CC[C@]2(CO)C3(C)C)c(OC)c1 [HU910, reference compound]
Output: < 4.30

###

# PROTOCOL DETAILS: Saturation (thermodynamic) solubility in buffer, FaSSIF, FeSSIF
# Type: physicochemical
# SETTINGS: thermodynamic from solid; aqueous phosphate buffer pH 6.5; read-out: Thermodynamic Solubility in Aqueous Buffer (pH 6.5)
MEASUREMENT TYPE: solubility thermodynamic (µg/mL)
All answers are understood in µg/mL, so give the number only.

molecule="CNC(=O)[C@@H](NC(=O)c1cc(OCC2(C)COC2)c(C2CC2)cn1)C(C)(C)C [RO6851228]" units=µg/mL reported_result=497

Now consider a different molecule.
Task: Query: solubility thermodynamic; subject: Cc1nc([C@](C)(CC2CC2)NC(=O)c2cc(OCC(F)(F)F)c(C3CC3)cn2)no1 [RO6871085]
Output: 3

###

# PROTOCOL DETAILS: Chemical stability (aqueous stability assay ASTA)
# Format: physicochemical
# SETTINGS: aqueous buffer; pH 8, 2 h, 37 °C; read-out: Chemical Stability in Aqueous Buffer at pH 8 (% remaining after 2 h at 37 °C)
MEASUREMENT TYPE: remaining at 2 h (%)
All answers are understood in %, so give the number only.

molecule=CC(C)(C)c1nc(N2CC[C@H](O)C2)c2nnn(Cc3nnnn3C3CC3)c2n1 measurement_type="remaining at 2 h" units=% reported_result=99
molecule=CNC(=O)[C@@H](NC(=O)c1cc(OCC2(C)COC2)c(C2CC2)cn1)C(C)(C)C measurement_type="remaining at 2 h" units=% reported_result=100

Task: Query: remaining at 2 h; subject: Cc1nc([C@](C)(CC2CC2)NC(=O)c2cc(OCC(F)(F)F)c(C3CC3)cn2)no1
Output: 99

Task: Query: remaining at 2 h; subject: CCCCCCC(C)(C)c1cc(OC)c(C2=C[C@H]3CC[C@]2(CO)C3(C)C)c(OC)c1 [HU910, reference compound]
Output: 94

###

# SYSTEM: human CB1R (Homo sapiens, UniProt P21554)
# Construct: host or cells: CHO
# Sequence (P21554 whole entry): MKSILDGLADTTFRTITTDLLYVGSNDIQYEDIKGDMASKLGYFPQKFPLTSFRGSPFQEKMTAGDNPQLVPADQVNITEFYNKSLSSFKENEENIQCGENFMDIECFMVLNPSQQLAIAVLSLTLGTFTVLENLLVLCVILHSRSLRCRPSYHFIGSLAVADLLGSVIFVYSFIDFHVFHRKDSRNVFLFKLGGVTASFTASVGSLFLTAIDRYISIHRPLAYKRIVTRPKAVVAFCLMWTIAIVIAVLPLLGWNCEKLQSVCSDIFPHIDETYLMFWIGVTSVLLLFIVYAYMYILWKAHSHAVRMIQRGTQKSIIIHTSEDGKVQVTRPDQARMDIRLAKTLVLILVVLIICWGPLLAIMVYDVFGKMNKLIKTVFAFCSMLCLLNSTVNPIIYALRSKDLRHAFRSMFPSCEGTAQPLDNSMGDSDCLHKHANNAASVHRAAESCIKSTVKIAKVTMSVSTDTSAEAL
# PROTOCOL DETAILS: cAMP assay, CHO cells expressing human CB1R
# Assay type: cell-based
# SETTINGS: read-out: hCB1R: cAMP EC50
MEASUREMENT TYPE: EC50

Task: Query: EC50; subject: CNC(=O)[C@@H](NC(=O)c1cc(OCC2(C)COC2)c(C2CC2)cn1)C(C)(C)C [RO6851228]
Output: > 10 µM

###

# PROTOCOL DETAILS: Saturation solubility in selected solvents/vehicles
# Type: physicochemical
# SETTINGS: solubility sample
Measured pH of solution in HP-beta-CD 15% by item

Here are 3 compounds together with their reported answers.
compound="CCCCCCC(C)(C)c1cc(OC)c(C2=C[C@H]3CC[C@]2(CO)C3(C)C)c(OC)c1 [HU910, reference compound]" reported_result=6.2
compound=CNC(=O)[C@@H](NC(=O)c1cc(OCC2(C)COC2)c(C2CC2)cn1)C(C)(C)C reported_result=7.6
compound=CC(C)(C)c1nc(N2CC[C@H](O)C2)c2nnn(Cc3nnnn3C3CC3)c2n1 reported_result=6.0

Task: Query: pH of solution in HP-beta-CD 15%; subject: CCCCCCC(C)(C)c1cc(OC)c([C@H]2C=C(CO)[C@H]3C[C@@H]2C3(C)C)c(OC)c1 [HU308, reference compound]
Output: 5.7

###

# SYSTEM: mouse CB2R (Mus musculus, UniProt P47936)
# Sequence (P47936 whole entry): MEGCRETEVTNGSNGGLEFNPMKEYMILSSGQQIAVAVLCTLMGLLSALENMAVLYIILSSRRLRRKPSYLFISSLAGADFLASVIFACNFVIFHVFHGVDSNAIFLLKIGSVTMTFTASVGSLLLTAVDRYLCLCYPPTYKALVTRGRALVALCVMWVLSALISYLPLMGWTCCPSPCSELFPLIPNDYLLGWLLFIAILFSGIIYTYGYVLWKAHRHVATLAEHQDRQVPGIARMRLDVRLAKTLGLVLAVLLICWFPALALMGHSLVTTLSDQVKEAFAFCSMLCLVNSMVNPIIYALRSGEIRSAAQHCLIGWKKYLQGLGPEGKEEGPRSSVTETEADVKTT
# PROTOCOL DETAILS: biochemical
# Assay type: binding
# Set-up: bgal (beta-galactosidase fragment of the PathHunter system, named only in the cell line's name); host or cells: CHO-K1 (CHOK1mCB2_bgal)
# Experimental: Membrane fractions were prepared from cultured CHOK1hCB1_bgal, CHOK1hCB2_bgal, and CHOK1mCB2_bgal cells (DiscoveRx, Fremont, CA, USA) as previously described. Protein concentration was determined using the Pierce bicinchoninic acid (BCA) protein assay (Rochford, IL, USA) as per the manufacturer’s instructions. Radio ligand-binding assays were carried out as described by Souethoudt et al. (2018). […]
MEASUREMENT TYPE: pKi
API: returns pKi as number; meaning -log10 of concentration in mol/L.

Task: Under mouse CB2R (Mus musculus, UniProt P47936): pKi value of CCCCCCC(C)(C)c1cc(OC)c([C@H]2C=C(CO)[C@H]3C[C@@H]2C3(C)C)c(OC)c1 [HU308, reference compound] ?
Output: 6.65

###

# PROTOCOL DETAILS: Saturation (thermodynamic) solubility in buffer, FaSSIF, FeSSIF
# Format: physicochemical
# SETTINGS: thermodynamic from solid; FaSSIF pH 6.5; read-out: Thermodynamic Solubility in FaSSIF (pH 6.5)
MEASUREMENT TYPE: solubility thermodynamic (µg/mL)
All answers are understood in µg/mL, so give the number only.

Here are 3 molecules together with their reported answers.
molecule="CCCCCCC(C)(C)c1cc(OC)c(C2=C[C@H]3CC[C@]2(CO)C3(C)C)c(OC)c1 [HU910, reference compound]" measurement_type="solubility thermodynamic" units=µg/mL reported_result=59
molecule="CCCCCCC(C)(C)c1cc(OC)c([C@H]2C=C(CO)[C@H]3C[C@@H]2C3(C)C)c(OC)c1 [HU308, reference compound]" measurement_type="solubility thermodynamic" units=µg/mL reported_result=52
molecule=Cc1nc([C@](C)(CC2CC2)NC(=O)c2cc(OCC(F)(F)F)c(C3CC3)cn2)no1 measurement_type="solubility thermodynamic" units=µg/mL reported_result=37

Task: Query: solubility thermodynamic; subject: CNC(=O)[C@@H](NC(=O)c1cc(OCC2(C)COC2)c(C2CC2)cn1)C(C)(C)C
Output: 421

###

# PROTOCOL DETAILS: Saturation solubility in selected solvents/vehicles
# Format: physicochemical
# SETTINGS: solubility sample; RO6871085 as hydrochloride salt
# binarize pH of solution in Tocrisolve: threshold 6 inclusive, high side Fulfilled, low side Not fulfilled

compound="CCCCCCC(C)(C)c1cc(OC)c(C2=C[C@H]3CC[C@]2(CO)C3(C)C)c(OC)c1 [HU910, reference compound]" qualitative_label=Fulfilled
compound="CC(C)(C)c1nc(N2CC[C@H](O)C2)c2nnn(Cc3nnnn3C3CC3)c2n1 [RO6871304]" qualitative_label="Not fulfilled"
compound="Cc1nc([C@](C)(CC2CC2)NC(=O)c2cc(OCC(F)(F)F)c(C3CC3)cn2)no1 [RO6871085]" qualitative_label="Not fulfilled"

Moving on to the next compound.
Task: Threshold query (pH of solution in Tocrisolve >= 6) on CNC(=O)[C@@H](NC(=O)c1cc(OCC2(C)COC2)c(C2CC2)cn1)C(C)(C)C [RO6851228]
Output: Fulfilled

Where these numbers come from: paper PMC6767236
